B1: VH:VL chains; a variant is named by its letters at X, in order (parent)
chain 1: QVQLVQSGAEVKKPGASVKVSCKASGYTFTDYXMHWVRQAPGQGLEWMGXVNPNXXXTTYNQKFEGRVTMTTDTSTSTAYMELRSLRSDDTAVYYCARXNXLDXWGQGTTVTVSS
chain 2: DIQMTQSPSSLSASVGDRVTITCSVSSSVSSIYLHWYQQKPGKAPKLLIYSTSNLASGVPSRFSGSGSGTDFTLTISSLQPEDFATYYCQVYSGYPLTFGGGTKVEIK

Variants of: B1
Test: yeast display scFab, FACS + sequencing
EXPERIMENTAL ENDPOINT: non-specific binding call

>>> measured_value("FEATAAGS")
"binds"
>>> measured_value("VRGKGAVD")
"binds"
>>> measured_value("FAEGDDSA")
"no binding"
>>> measured_value("VRAGDDGV")
"no binding"
>>> measured_value("DAKENAGD")
"no binding"
>>> measured_value("FRRGGAVV")
"binds"

Below are some variants; for each one, tell me its non-specific binding call.
1. FKKGSAVA
2. YKARGAWA

-- reply
["binds", "binds"]

Below are some variants; for each one, tell me its non-specific binding call.
1. ATTRGAVA
2. YRGTGSVD

-- reply
1: no binding; 2: binds

Data provenance is the emibetuzumab library of Makowski et al. (2022).
